experiment: Half-lives and pharmacokinetic parameters of polypeptides vs HM-1; settings: in vivo
Peptide text beside a SMILES is read from it. * marks the point of attachment. X23 = O=C1C=CC(=O)N1CCOCCOCCOCCOCCOCCOCCCCC(=O)*; Propanoyl(3-maleimido) = O=C1C=CC(=O)N1CCC(=O)*; X76 = O=C1C=CC(=O)N1CCOCCCCCCCC(=O)*
Readout kind: AUC(0-inf) (ng·h/mL)
Numbers only, in ng·h/mL.

compound="C[C@H](NC(=O)[C@H](CCCNC(=N)N)NC(=O)[C@H](CC(=O)O)NC(=O)[C@H](CCC(=O)O)NC(=O)CNC(=O)[C@H](CCCNC(=N)N)NC(=O)CCN1C(=O)C=CC1=O)C(=O)NCC(=O)NCC(=O)NCC(=O)NCC(=O)N[C@@H](CCCNC(=N)N)C(=O)NCC(=O)N[C@@H](CC(=O)O)C(=O)O [P5] ({Propanoyl(3-maleimido)}-RGEDRAGGGGRGD-OH; C-terminus assumed)" observed_result=29200
compound="C[C@H](NC(=O)CNC(=O)[C@H](CCCNC(=N)N)NC(=O)CCCCOCCOCCOCCOCCOCCOCCN1C(=O)C=CC1=O)C(=O)N[C@@H](CC(=O)O)C(=O)N[C@@H](CCCNC(=N)N)C(=O)N[C@@H](C)C(=O)NCC(=O)NCC(=O)NCC(=O)NCC(=O)N[C@@H](CCCNC(=N)N)C(=O)NCC(=O)N[C@@H](CC(=O)O)C(=O)O [X87] (X23-RGADRAGGGGRGD-OH)" observed_result=33400

C[C@H](NC(=O)CNC(=O)[C@H](CCCNC(=N)N)NC(=O)CCCCCCCOCCN1C(=O)C=CC1=O)C(=O)N[C@@H](CC(=O)O)C(=O)N[C@@H](CCCNC(=N)N)C(=O)N[C@@H](C)C(=O)NCC(=O)NCC(=O)NCC(=O)NCC(=O)N[C@@H](CCCNC(=N)N)C(=O)NCC(=O)N[C@@H](CC(=O)O)C(=O)O [X55] (X76-RGADRAGGGGRGD-OH) yielded AUC(0-inf) of 24300
